Taken from PubChem BioAssay (NCATS).

Assay info: Cellular Toxicity (caspase-3) MRC-5 (AID 659);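 also: cells exposed to compound for 16 h at 37 °C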; also: potency is read from the fitted curve at half-maximal effect
Test parameters: MRC-5 cells, luminescence; caspase-3 activation; series mostly up to 91.7 µM
The source made the active and inactive calls. Calls follow the shape of the dose curve; as a rule, active = well fitted curve in the direction sought with a large enough effect; inconclusive = small, poorly fitted or top-dose-only effect, or another doubt; inactive = no such curve, though single readings can be large or run the other way.
Quantity name: Potency

As a guide, the following entries are already answered.
Molecule: COc1cccc2c1C(=O)c1c(O)c3c(c(O)c1C2=O)C[C@@](O)(C(C)=O)C[C@@H]3O[C@H]1C[C@H](N)[C@H](O)[C@H](C)O1
Potency: 31.6 µM (active)
--
Molecule: CC(C)(C)CC(C)(C)c1ccc(OCCOCC[N+](C)(C)Cc2ccccc2)cc1
Potency: 31.6 µM (active)
--
Molecule: Oc1c(Cl)cc(Cl)cc1Sc1cc(Cl)cc(Cl)c1O
Potency: inactive
--
Molecule: O=C1OC(c2ccc(O)cc2)(c2ccc(O)cc2)c2ccccc21
Potency: inactive

// fetch Potency given entry Oc1c(I)cc(Cl)c2cccnc12
inactive

====

Assay info: Confirmatory qHTS for small molecule stabilizers of the endoplasmic reticulum resident proteome: Secreted ER Calcium Modulated Protein (SERCaMP) assay (AID 1508628); also: nearly all actives have a fitted effect of over 40% in size
Test parameters: SERCaMP secreted luciferase ER calcium/proteostasis reporter; series mostly up to 76.3 µM
Inconclusive results are not listed. Calls of active or inactive are those of the source. The call rests on the fitted dose curve; in most records, active means well fitted inhibition curve with a large enough effect; inconclusive means small, poorly fitted or top-dose-only effect; inactive means no such curve, though single readings can be large or run the other way.
Give one outcome, nothing more. List: Y for active, N for inactive

Use the examples below as a reference point.
Compound: c1ccc(-c2ccc(C(c3ccccc3)n3ccnc3)cc2)cc1 (configuration not stated)
Group label: N
--
Compound: CN1[C@@H]2CC[C@H]1CC(OC(=O)c1c[nH]c3ccccc13)C2 (some centres not stated)
Group label: N
--
Compound: CCN1CCN(c2cc3c(cc2F)c(=O)c(C(=O)O)cn3C2CC2)CC1
Group label: N

Short answer needed: outcome of this test for Nc1nc2ncc(CNc3ccc(C(=O)N[C@@H](CCC(=O)O)C(=O)O)cc3)nc2c(=O)[nH]1 ?
N

Check the results log: what was the call for CC(=O)Oc1ccc(C(=C2CCCCC2)c2ccc(OC(C)=O)cc2)cc1 ?
N

Please share the test call associated with C[C@@H]1CN(CCCn2c3ccccc3c3ccccc32)C[C@H](C)N1 .
N

Test call, this compound: CN1CCCC(CC2c3ccccc3Sc3ccccc32)C1 (configuration not stated)
Y

====

Assay info: qHTS of pediatric cancer cell lines to identify multiple opportunities for drug repurposing: Confirmatory screen for TC32 cells (AID 1347118);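 also: cells exposed to compound for 48 h before the read; nearly all actives have a fitted effect of over 65% in size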
Test parameters: TC32 Ewing sarcoma cells viability qHTS; series mostly up to 45.9 µM
Inconclusive results are not listed. Calls of active or inactive are those of the source. Calls follow the shape of the dose curve; as a rule, active = well fitted cell-killing curve with a large enough effect; inconclusive = small, poorly fitted or top-dose-only effect; inactive = no such curve, though single readings can be large or run the other way.
Thanks in advance; please answer with one of these: active, inactive

Molecule: CCOc1ccc2nc3cc(N)ccc3c(N)c2c1
Group label: active
//
Molecule: Oc1ccc(O)cc1
Group label: active
//
Molecule: CC(=O)Oc1ccc(C(c2ccc(OC(C)=O)cc2)c2ccccn2)cc1
Group label: active

I'd appreciate the recorded outcome for CN(C)/N=N/c1nc[nH]c1C(N)=O from this test.
active

Look up the recorded call for C[n+]1c2cc(N)ccc2cc2ccc(N)cc21 (tested in a mixture with another compound) in this test.
active

Call for entry CC(C)(C(=O)c1cccnc1)c1cccnc1 :
active

For C[C@@H]1C[C@H]2[C@@H]3CCC4=CC(=O)C=C[C@]4(C)[C@@]3(F)[C@@H](O)C[C@]2(C)[C@H]1C(=O)CO , which call appears in the assay record?
inactive

Which outcome did this test record for the molecule NC(=O)CC[C@@H]1NC(=O)[C@H](Cc2ccccc2)NC(=O)[C@H](Cc2ccc(O)cc2)NC(=O)CCSSC[C@@H](C(=O)N2CCC[C@H]2C(=O)N[C@@H](CCCN=C(N)N)C(=O)NCC(N)=O)NC(=O)[C@H](CC(N)=O)NC1=O ?
inactive

Fill in: this test's call for NC(CO)(CO)CO is ___
active

What classification did COc1cc(C=C2CCC/C(=C\c3ccc(O)c(OC)c3)C2=O)ccc1O end up with in this test?
active

====

System: Tov-21-G
Assay info: Primary qHTS to identify gynecologic anti-cancer compounds using libraries of approved drugs and bioactive compounds (AID 1345084); also: nearly all actives have a fitted effect of over 55% in size
Test parameters: Gynecologic cancer cell panel viability, ATPlite luminescence, 48 h; series mostly up to 57.5 µM
Source text: National Center for Advancing Translational Sciences [NCATS] Assay Overview: Chemotherapeutic drug responses vary from cancer to cancer and from patient to patient. […] ATPlite is a luminescence based assay reliant on the conversion of a luciferase substrate to light in the presence of ATP. As a cytotoxic compound will suppress growth and decrease the number of cells, the concentration of ATP will decrease, and less light signal will be detected in the well. […]
Results filed as inconclusive are left out. Active and inactive are the calls of the source. Calls come from the whole dose curve; as a rule, active = well fitted cell-killing curve with a large enough effect; inconclusive = small, poorly fitted or top-dose-only effect, or effect the other way; inactive = flat fitted curve, though single readings scatter.
Outcome (select one): True = active, False = inactive

Worked examples, 2 compounds total:
Compound: CC(=O)Oc1ccc(C(=C2CCCCC2)c2ccc(OC(C)=O)cc2)cc1
Group label: False

Compound: COCc1c(C(C)C)nc(C(C)C)c(/C=C/[C@@H](O)C[C@@H](O)CC(=O)O)c1-c1ccc(F)cc1
Group label: True

For this compound, state the assay outcome: Oc1ccc(Cl)c2cccnc12
False

Any idea what this test logged for CC(=O)OCC(=O)NCCCOc1cccc(CN2CCCCC2)c1 ?
False

====

System: CP201
Assay info: qHTS profiling for inhibitors of Plasmodium falciparum proliferation (AID 504749); also: nearly all actives have a fitted effect of over 60% in size
Test parameters: P. falciparum in erythrocytes, SYBR Green DNA, 72 h; series mostly up to 28.7 µM
Results filed as inconclusive are left out. Active and inactive are the calls of the source. The call rests on the fitted dose curve; in most records, active means well fitted inhibition curve with a large enough effect; inconclusive means small, poorly fitted or top-dose-only effect; inactive means flat fitted curve, though single readings scatter.
Hi! Could you answer with just one of these? y for active, n for inactive

Molecule: CCCCCC=CCC=CCCCCCCCC(=O)OCC
Group label: n

What call does the record list for COc1c(C)c2c(c(O)c1C/C=C(\C)CCC(=O)O)C(=O)OC2 ?
y

Recorded call for C[C@H]1C[C@H]2[C@@H]3CCC4=CC(=O)C=C[C@]4(C)[C@@]3(Cl)[C@@H](O)C[C@]2(C)[C@@]1(O)C(=O)CO ?
n

Which outcome was entered for the compound CN1CCN(C(c2ccccc2)c2ccccc2)CC1 in this test?
n

State the result this test recorded for CN(C)CCOc1ccccc1Cc1ccccc1 .
n

// param item: CCCCCCCCCCCCCCNCCO ; yields the recorded call
n

Status in this test for COc1ccc(C2C(=O)c3ccccc3C2=O)cc1 ?
n

Short answer needed: outcome of this test for CCCCOc1ccc(OCCCN2CCOCC2)cc1 ?
n

Answer briefly: the call reported for O=C(O)c1cc2cc(Cc3cccnc3)ccc2o1 in this assay.
n

Which outcome did this test record for the compound C=C(CC)C(=O)c1ccc(OCC(=O)O)c(Cl)c1Cl ?
n

What outcome does the record of this test show for c1ccc(CNCCNCc2ccccc2)cc1 ?
n

// param item: Cc1cc(=O)n(-c2ccccc2)n1C ; yields the recorded call
n

What was the test verdict on CC(C)(C(=O)c1cccnc1)c1cccnc1 ?
n

What outcome does the record of this test show for NCCCC[C@H](N[C@@H](CCc1ccccc1)C(=O)O)C(=O)N1CCC[C@H]1C(=O)O ?
n

====

Test system: DFO2036
Assay info: qHTS profiling for inhibitors of Plasmodium falciparum proliferation (AID 504749); also: nearly all actives have a fitted effect of over 60% in size; also: potency is read from the fitted curve at half-maximal effect
Test parameters: P. falciparum in erythrocytes, SYBR Green DNA, 72 h; series mostly up to 28.7 µM
Results filed as inconclusive are left out. The source made the active and inactive calls. Calls come from the whole dose curve; as a rule, active = well fitted inhibition curve with a large enough effect; inconclusive = small, poorly fitted or top-dose-only effect; inactive = flat fitted curve, though single readings scatter.
Quantity name: Potency

Known results for compounds:
Compound: CCCOC(C(=O)OC1CCN(C)CC1)(c1ccccc1)c1ccccc1
Value reported: inactive
--
Compound: CCCN1CCCC[C@H]1C(=O)Nc1c(C)cccc1C
Value reported: inactive
--
Compound: CC(C)(C)CC(C)(C)c1ccc(OCCOCC[N+](C)(C)Cc2ccccc2)cc1
Value reported: 3.98 µM (active)
--
Compound: NCCc1ccn[nH]1
Value reported: inactive
--
Compound: CC(O)C(=O)O (stereo not drawn)
Value reported: inactive

For each listed entry, give its Potency.
1. CCC(=O)c1c(O)cc(O)cc1O
2. CN1CCN(C(c2ccccc2)c2ccccc2)CC1
3. Cc1cc(N)c2cc(NC(=O)Nc3ccc4nc(C)cc(N)c4c3)ccc2n1
4. CCN(CC)C(=O)/C(C#N)=C/c1cc(O)c(O)c([N+](=O)[O-])c1
5. CN1CCC(=C2c3ccccc3Sc3ccccc32)CC1

1. inactive
2. inactive
3. 5.62 µM (active)
4. inactive
5. 10 µM (active)

For each entry beneath this line, provide reported Potency.
1. O=C(CCN1CCC(c2ccccc2)C1)c1ccc2c(c1)OCCO2 (stereo not drawn)
2. CC(=O)c1ccc2c(c1)N(CCCN1CCC(CCO)CC1)c1ccccc1S2
3. N[C@H](Cc1c[nH]c2ccccc12)C(=O)O
4. Nc1ccc(/C=C/c2ccc(N)cc2S(=O)(=O)O)c(S(=O)(=O)O)c1
5. Cc1c(C(C)C)c(=O)n(-c2ccccc2)n1C
6. CCCCCCc1ccc(O)cc1O

1: inactive; 2: inactive; 3: inactive; 4: inactive; 5: inactive; 6: inactive

Would you mind giving Potency for every compound in the list below?
1. C#C[C@]1(O)CC[C@H]2[C@@H]3CCc4cc(OC5CCCC5)ccc4[C@H]3CC[C@@]21C
2. Oc1c(Cl)cc(Cl)cc1Sc1cc(Cl)cc(Cl)c1O
3. O=C(Nc1ccc(Cl)c(Cl)c1)C1CC1
4. CCN(CC)C(=O)N1CCN(C)CC1
5. CCCCOc1cc(C(=O)NCCN(CC)CC)c2ccccc2n1

1: inactive; 2: inactive; 3: inactive; 4: inactive; 5: inactive

Please give Potency, item by item, for the list that follows.
1. CC(=O)Oc1ccc(C(=C2CCCCC2)c2ccc(OC(C)=O)cc2)cc1
2. CCCCCCC[N+](CC)(CC)CCCCc1ccc(Cl)cc1
3. C=CCc1ccc(O)c(OC)c1
4. O=C1CCC(c2ccc(-n3ccnc3)cc2)=NN1

1. inactive
2. 1.78 µM (active)
3. inactive
4. inactive
